Hello, the source for this data is the nanobody polyreactivity screen of Harvey et al. (2022), in case you need it.

experiment.notes: yeast display, Sf9 membrane polyspecificity reagent, FACS + sequencing; frameworks hold sequencing errors
observation.type: polyreactivity (PSR sort gate)

Example sequences with recorded polyreactivity (PSR sort gate):
{"columns": ["record.sequence", "test.value"],
 "data": [
  ["QVQLVESGGGLVQAGGSLRLSCAASGSIFRSYAMGWYRQAPGKERELVASITWRGGRTYYADSVKGRFTISRDNAKNTVYLQMNSLKPEDSAVYYCNVDVPGVRFEYWGQGTQVTVSS", "low polyreactivity"],
  ["QGKLVESGGGLVQAGGSLRLTCPASGSIFRLNTMGWYRQAPGKEREFVAAISKGGTSTYYADSVKGRFTISRDNAKNTVYLQLTSLIPEDTAVYYCARKRYPSAPFQYDYWGQGTQVTVSS", "high polyreactivity"],
  ["QVQLVESGGGLVHAGGSLRLSCAASGSTFARYAMGWYRPAPGKERELVAVIRSGGSTNYADSVKGRFTISRDNAKNTVYLQMNSLKPEDTAGAADQWTIHRWATYGYWGQGTQVTVSS", "low polyreactivity"],
  ["QVQLVESGGGLVQAGGRLRLSCAASGRTFKLYAMGWYRQAPRKERELVAAITESGGSTYYADTVKGRFTISRDNAKNTVYLQMNILKPEDTAVDYCARVLQYQKRNDYEYWGQGTQVTVSS", "low polyreactivity"]
]}

# ---- query sequence ----
Exercise: Query (sequence): QVQLVESGGGLVQAGGSLRLSCAASGLTFVKNAMGLYRQAPRKERELVATISSGGSTNYADSVKGRFTISRDNAKNTVYLQMNSLKPEETAVYYCNKDYTGVLLWIWWDRYDYWGQGTQVTVSS ; field requested: polyreactivity (PSR sort gate)
Key: high polyreactivity

====

experiment.notes: yeast display, Sf9 membrane polyspecificity reagent, FACS + sequencing; frameworks hold sequencing errors
observation.type: polyreactivity (PSR sort gate)

Example sequences with recorded polyreactivity (PSR sort gate):
{"columns": ["record.sequence", "polyreactivity (PSR sort gate)"],
 "data": [
  ["QVQLVESGGGLVQAGGSLRLSCAASRSTFEGYAMGLYRQAPGKERELVAAITVSVGSTYYADSVKGRFTISRDNAKNTVYLQMNSLKPEDTAVYYCAADYDYQYRYYYWGQGTQVTVSS", "low polyreactivity"],
  ["QVQLVESGGGLVQAGGSLRLSCAASGRIFLKYTMGWYRQAPGKERELVAAISRGGSTYYADSVKGRFTISRDNAKNTVYLQMNSLKPEDTAVYYCAARRSRPTYYSTGVNYWGQGTQVTVSS", "high polyreactivity"],
  ["QVQLVESGGGLVQSGGSLRLSCAASGRTFYNNAMGWYRQAPGKERELVATINNRGGTTYYADSVKGRFTISRDNAKNTVYLQMNSLKPEDTAVYYCANSAQRYSYRYYYWGQGTQVTVSS", "high polyreactivity"],
  ["QDQLVESGGGLVQAGGSLRLTCAASGSTFTTNVMGWYRQAPGKERDLVAAISWSSGSTYYADSVKGRFTISRDNAKNTVYLQMKSLKPEDTAVYYCAARLVIFYPYSRYYYWGQGTHVTVSS", "high polyreactivity"]
]}

Exercise: Query (sequence): QVQLVESGGGLVQAGGSLRLSCAASGSILYVYAMGRYRQAPGKERELVAAISGSGGSTYYADSVKGRFTISRDNAKNTVYLQMNSLKPEDTAVYYCAADYATVTWRGIAYDYWGLGTQVTVSS ; field requested: polyreactivity (PSR sort gate)
Key: low polyreactivity

====

experiment.notes: yeast display, Sf9 membrane polyspecificity reagent, FACS + sequencing; frameworks hold sequencing errors
observation.type: polyreactivity (PSR sort gate)

Example sequences with recorded polyreactivity (PSR sort gate):
{"columns": ["record.sequence", "test.value"],
 "data": [
  ["QVQLEESGGGLVQAGGSLRLSCAASGRTFWVYAMGWYRQAPGKERELVAAISRSGVSTYYADSVKGRFTISRDNAKNTVYLQMNSLKPEDTAVYYWAAEARVQFSYDYWGQGTQVTVSS", "low polyreactivity"],
  ["QFQLVESGGGLVQAGGSLRLSCAASGRIFGRYSRGLYRQAPGKERELVAAITWLGTTYYADSVKGRFTISRDNAKNTVYLQMNSLKPEDTAVYYCATVVLLRIWGGYWGQGTQVTVSS", "high polyreactivity"],
  ["QVQLVESGGGLVQAGGSLRLSCAASGSTFYFNAMGWYRQAPGKERELVAGIRYSGSSTYYADSVKGRFTISRDNAKNTVYLQMNSLKPEDTAVYYCAARYSVYPRVSKYSYRFNYWGQGTQVTVSS", "high polyreactivity"],
  ["QGQLEESGGGLFQAGGSLRLSCAASGRIFLYNGMGWYRQAPGKERELVAGITTGGNTNYADSVKGRFTISRDNAKNTVYLQMNSLKPEDTAVYYCAAEVIVYGWSPDYDYWGQGTQVTVSS", "low polyreactivity"]
]}

Exercise: Query (sequence): QVQLVESGGGLVQAGGSLRLSCAASGRIFSYYGMGWYRQAPGKERELVAAISTGGNTNYADSLKGRFTISRDNAKNTVYLQMNSLKPEDTAVYYCAAGFPYKFTYVCGYNHWGQGTQVTVSS ; field requested: polyreactivity (PSR sort gate)
Key: low polyreactivity

====

experiment.notes: yeast display, Sf9 membrane polyspecificity reagent, FACS + sequencing; frameworks hold sequencing errors
observation.type: polyreactivity (PSR sort gate)

Example sequences with recorded polyreactivity (PSR sort gate):
{"columns": ["record.sequence", "observation.type", "test.value"],
 "data": [
  ["QVQLVESGGGLVQAGGSLRLSCAASGFTVAIYAMGWYRHAPGKERELVAAINRCGGSTYYADSVKGRFTISRDNAKNSVYLQMNSLKTEDTAVYYCNKRYRVWFDYWGQGTQVTVSS", "polyreactivity (PSR sort gate)", "high polyreactivity"],
  ["QVQLVESGGGLVQAGGSLRLSCAASGRIFGWYAMGWYRQAPGKERELVAAINWDGTSTDYADSVKGRFTISRDNAKNTVYLQMNSLKPEDTAVYYCAAEGHTAFLVYRVSPLQYDYWGQGTQVTVSS", "polyreactivity (PSR sort gate)", "low polyreactivity"],
  ["QVQLVESGGGLVQAGGSLRLSCAASGRTLQWNAMGWYRQAPGKERELVATISSGGSTKYADSVKGRFTISRDNAKNTVYLQMNSLKPEDTAVYYCNAQPFGMYYHRYYYWGQGTQVTVSS", "polyreactivity (PSR sort gate)", "low polyreactivity"],
  ["QVQLAETGGGLVQAGGSLRLSCAASGSTFSVYAMGWYRQSPGKERELVATIPRGGSTYADSVKGRLTISRDNAKNTVYLQMNSLKPEDTAVYYCAADAYVSSQPMDYWGQGTQVTVSS", "polyreactivity (PSR sort gate)", "high polyreactivity"]
]}

Exercise: Query (sequence): QVQLVESGGGLDQAGGSLRLSSAASGLTFGGNAMGWYRQAPGKERELVAAISWSDDTTDYADSVKGRFTISRDNAKNTVYLQMNSLKPEDTAVYYCAARLPFEHVEYWGQGTQVTVSS ; field requested: polyreactivity (PSR sort gate)
Key: low polyreactivity

====

experiment.notes: yeast display, Sf9 membrane polyspecificity reagent, FACS + sequencing; frameworks hold sequencing errors
observation.type: polyreactivity (PSR sort gate)

{"columns": ["record.sequence", "test.value"],
 "data": [
  ["QVQLVESGGGLVQAGGSLRLSCAASGRTFAGNAMGWYRQAPGKEREFVASITASGVNTYYADSVKGRFTISRDNAKNTVYLQMNSLKPEDTAVYYCNKRNRWTPFYTYEYWGQGTQVTVSS", "low polyreactivity"],
  ["QVQLVESGGGLVQAGGSLRLSCAASGFTFAYYAMGWYRQAPGKERELVAAITVSGASTYYADSVKGRFTISRDNAKNTVYLQMNSLKPEDTAVYYCNASSVSFYYLEPSQPMDYWGQGTQVTVSS", "high polyreactivity"],
  ["QVQLVESGGGLVQAGGSLRLICAASGNTFNFYAMGSYRQAPGKERELVAGISGSNTYYADSVKGRFTISRDNAKNTVYLQMNSLKPEDTAVYYCAKRAIWRYGYWGQGTQVTVSS", "high polyreactivity"],
  ["QVQLVESGGGLVQAGGSLRLSCAASGRTLSRNAMGWYRQAPGKERELVAAINYSGGITYYADSVKGRFTISRDNAKNTVYLQMNSLKPEDTAVYYCAATVKYWGQGTQVTVSS", "high polyreactivity"],
  ["QVHHEESGGGLVQAGGSLRLSCAASGGIFYLNDMGWYRQAPGKERELVAAITGTGGNTYYADSVKGRFTISRDNAKNTVYLQMNSLKPEDTAVYYCAAQHYWVTSYLSSYDYWGQGTQVTVSS", "low polyreactivity"],
  ["QVQLVESGGGLVQAGGSLRLSCAASGSTLWFNAMGWYRQAPGKERELVAAINWSGGSTYYADSVKGRFTISRDNAKNTVYLQMNSLKPEDTAVYYCAAVYQYVHYVWYDYWGQGTQVTVSS", "low polyreactivity"]
]}

Exercise: Query (sequence): QVQLVESGGGLVQAGGRLRISCAASVRIFGVNAMGWYRQAPGKERELVAVISSGGSTYYADSVKGRFTISRDNAKNTVYLQMNSLNPEDTAVYSCYAVVGRWFPYNLSDYWGQGTQVTVSS ; field requested: polyreactivity (PSR sort gate)
Key: low polyreactivity

Exercise: Subsequent entry: QVQLVESGGGLVQAGGSLRLSCAASGYIFYGYDMGWYRQAQGKERDLVAGITYSGGGGTHYADSVKGRFTISRDNAKNTVYLQMNSLKPEDTAVYYCAKADPQLNRNYYSYGMDYWGQGTQVTVSS
Key: low polyreactivity

Exercise: Subsequent entry: QVQLVESGGGLVQAGGSLRISCAASGFIIYGYVMGWYRQAPGKERELVAAINSSSGRTYYADSVKGRFTISRDNAKNTVYLQMNSLKPEDTAVYYCAAYYYCSYDGTPYDYWGQGTQVTVSS
Key: low polyreactivity

Exercise: Subsequent entry: QVQLVESGGGLVQAGGSLRLSCAASGSIFGKYALGWYRQAPGIERELVAAISGRGGGTYYADSVKGRFTISRDNAKNTVYLQVNRLNPEDTGVYYCNAYYSRLRYDYWGQGTQVTVSS
Key: high polyreactivity

Exercise: Subsequent entry: QVQLVESGGGLVQAGGSLRLSCAASGITIQGYAMGWYRQAPGKERELVAAINDSGSSTYYADSVKGRFTISRDNAKNTFYLQMNSLKPEYTAVYYCAAYLWLWGQGTQVTVSS
Key: low polyreactivity
